B1: library; a variant is named by its letters at N, in order (parent)
chain: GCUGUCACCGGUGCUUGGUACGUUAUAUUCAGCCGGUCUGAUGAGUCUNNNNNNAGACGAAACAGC

Variants of: B1
Experiment: normalized RNA/DNA level without ligand (relative to sTRSVctl = 100) (log10 (% of sTRSVctl)); HEK293T overexpressing SLC46A1; higher = less ribozyme self-cleavage, higher mRNA level
Conditions: without (6R,S)-folinic acid; ligand present: no
Catalogue of normalized RNA/DNA level without ligand (log10) values
Give only the figure.

Solved cases (2 shown):
[
  {
    "Variant key": "UACAAC",
    "Result": 2
  },
  {
    "Variant key": "AAAAAA",
    "Result": 1.95
  }
]

[in] For the variant shown here, `GGGACA` , give the reported normalized RNA/DNA level without ligand (log10).
[out] 2

[in] For the variant shown here, `ACAUUU` , give the reported normalized RNA/DNA level without ligand (log10).
[out] 2

[in] For the variant shown here, `GGGCAU` , give the reported normalized RNA/DNA level without ligand (log10).
[out] 2.05

[in] For the variant shown here, `GAUCCA` , give the reported normalized RNA/DNA level without ligand (log10).
[out] 2.03

[in] For the variant shown here, `GGCAAC` , give the reported normalized RNA/DNA level without ligand (log10).
[out] 2.06

[in] For the variant shown here, `AGCUGG` , give the reported normalized RNA/DNA level without ligand (log10).
[out] 2.05

[in] For the variant shown here, `AUAGGA` , give the reported normalized RNA/DNA level without ligand (log10).
[out] 1.91

[in] For the variant shown here, `GGACCA` , give the reported normalized RNA/DNA level without ligand (log10).
[out] 2.05

[in] For the variant shown here, `UUGCAA` , give the reported normalized RNA/DNA level without ligand (log10).
[out] 1.96

From: the supplement of paper PMC6757056
